- Test system: Plasmodium falciparum
- Test Protocol: Antimalarial activity against Plasmodium falciparum 3D7 infected in O-positive human erythrocytes assessed as inhibition of parasite lactate dehydrogenase after 72 hrs by pLDH method
- Assay type: functional, organism-based
- Reported Conditions: 3D7, 72 h
Assign IC50 to each entry below.
Write it as a number; the unit µM goes unstated.

I looked up CCOP(=O)(NC(C)C)Oc1ccc([N+](=O)[O-])c(C)c1 (stereo not given) and its IC50 for Plasmodium falciparum was 79

Measured on Plasmodium falciparum, CCOP(=O)(NCC(C)C)Oc1ccc(C(F)(F)F)cc1 (racemic) has a documented IC50 of 40

Case CCOP(=O)(NC(C)C)Oc1ccc(C)cc1Br (stereo not given) , Plasmodium falciparum, IC50 recorded as 39

Field IC50 (system: Plasmodium falciparum) for entry CCOP(=O)(NC(C)C)Oc1ccc(C)cc1Cl (stereo not given) = 39

Reading of IC50 for CCOP(N)(=O)Oc1ccc(C(F)(F)F)cc1 (stereo not given) with Plasmodium falciparum: 79
